# System: SEM cells
# experiment: cell viability relative to DMSO control; higher = less cytotoxic
# run.parameters: HPLM + 10% dialyzed FBS; 48 h; 0.569 µM
assay.endpoint: cell viability

Sample answers from the record:
{"compound": "C[C@@H]1C[C@H]2[C@@H]3\\C=C(C)/C4=C/C5=C(C[C@]4(C)[C@H]3[C@@H](O)C[C@]2(C)[C@@]1(O)C(=O)COC(C)=O)C=N[N]5C6=CC=CC=C6", "experimental.target": "SEM cells", "recorded.value": "66.4%"}
{"compound": "COC1=CC=C2Nc3cc(Cl)ccc3C(N=C3C=C(CN4CCCC4)C(=O)C(CN4CCCC4)=C3)=C2N1", "experimental.target": "SEM cells", "recorded.value": "106%"}
{"compound": "Clc1cccc(-c2nnnn2Cc2cccnc2)c1Cl", "experimental.target": "SEM cells", "recorded.value": "92.6%"}
{"compound": "CCC[C@@H]1C[C@@H](C(=O)N[C@@H]([C@H]2O[C@H](SC)[C@H](O)[C@@H](O)[C@H]2O)[C@@H](C)O)N(C)C1.Cl", "experimental.target": "SEM cells", "recorded.value": "114%"}
{"compound": "Clc1ccc(C2(c3ccc(-c4cn[nH]c4)cc3)CCNCC2)cc1", "experimental.target": "SEM cells", "recorded.value": "73.7%"}
{"compound": "Cn1c2ccccc2c2c3c(c4c5ccccc5n(CCC#N)c4c21)CNC3=O", "experimental.target": "SEM cells", "recorded.value": "55%"}
{"compound": "Cc1ccc(C(C)(O)c2nc3ccccc3s2)c(C)c1 (stereo not given)", "experimental.target": "SEM cells", "recorded.value": "6.4%"}
{"compound": "COC[C@H](NC(=O)c1cnc(C)s1)C(=O)N[C@@H](COC)C(=O)N[C@@H](Cc1ccccc1)C(=O)[C@@]1(C)CO1", "experimental.target": "SEM cells", "recorded.value": "3.74%"}

Hey, can you go through the list below and give me cell viability for every item?
1. Cc1cc2c(C(C)C)c(O)c(O)c(C=O)c2c(O)c1-c1c(C)cc2c(C(C)C)c(O)c(O)c(C=O)c2c1O
2. CSC1=CC(=CC=C1)NC2=NC3=C(C=N2)/C=C(C(=O)N3C)/C4=C(Cl)C=CC=C4Cl

116%
97%

Okay, here is my list. What is cell viability for each of these?
1. Cc1cc(O)c2c3c4c(cc(O)c13)C(C)(C)C(=O)c1c(O)cc(O)c(c1-4)C2=O
2. CC/1=C/N([C@@H]2C[C@@H](O)[C@H](CO)O2)C(=O)NC1=O
3. O=C1\C=C(/OC2=C1C=CC=C2C3=CC=CC=C3)N4CCOCC4
4. CC[C@]1(O)C[C@H]2CN(CCC3=C([NH]C4=C3C=CC=C4)[C@@](C2)(C(=O)OC)C5=CC6=C(C=C5OC)N(C=O)[C@H]7[C@](O)([C@H](OC(C)=O)[C@]8(CC)\C=C/C[N@@]9CC[C@]67[C@H]89)C(=O)OC)C1
5. CCC1=C[C@@H]2CN(C1)Cc1c([nH]c3ccccc13)[C@@](C(=O)OC)(c1cc3c(cc1OC)N(C)[C@H]1[C@@](O)(C(=O)OC)[C@H](OC(C)=O)[C@]4(CC)C=CCN5CC[C@]31[C@@H]54)C2

106%
86.4%
90.3%
20.7%
25.5%

###

# Tested on: NOMO1
# experiment: cell viability relative to DMSO control; higher = less cytotoxic
# run.parameters: RPMI 5 mM glucose + 10% FBS; 48 h; 1.71 µM
I'd be grateful if you could share measured cell viability for these entries.
Answers are plain numbers, in %.

# map each molecule to its cell viability
1. OC[C@H]1O[C@@H](Oc2ccc(O)cc2)[C@H](O)[C@@H](O)[C@@H]1O
2. O=C1\C=C(/OC2=C1C=CC=C2C3=CC=CC=C3)N4CCOCC4
3. COC1=CC=C2Nc3cc(Cl)ccc3C(N=C3C=C(CN4CCCC4)C(=O)C(CN4CCCC4)=C3)=C2N1
4. CCCCN(CCCC)CCC(O)c1cc2c(Cl)cc(Cl)cc2c2cc(C(F)(F)F)ccc12 (stereo unspecified)
5. Cc1ccc(C(C)(O)c2nc3ccccc3s2)c(C)c1 (stereo unspecified)

1. 91.5
2. 77
3. 135
4. 121
5. 114

// each molecule listed below needs its cell viability
1. Cc1ccc(NC(=O)C2(c3ccc4c(c3)OC(F)(F)O4)CC2)nc1-c1cccc(C(=O)O)c1
2. COc1cc2nccc(Oc3ccc(NC(=O)C4(C(=O)Nc5ccc(F)cc5)CC4)cc3)c2cc1OC
3. O=C1c2c(O)cccc2[C@H]([C@@H]2O[C@H](CO)[C@@H](O)[C@H](O)[C@H]2O)c2cc(CO)cc(O)c21
4. O=C(O)[C@H](Cc1c[nH]c2ccccc12)N1C(=O)c2ccccc2C1=O
5. Cc1ccc(NC(=O)c2ccc(CN3CCN(C)CC3)cc2)cc1Nc1nccc(-c2cccnc2)n1

[10.2, 107, 83.1, 97.1, 111]

###

# System: P12-Ichikawa
# experiment: cell viability relative to DMSO control; higher = less cytotoxic
# run.parameters: RPMI 5 mM glucose + 10% dialyzed FBS; 48 h; 15.4 µM
Exercise: for every item that follows, state its recorded cell viability.
Numbers only, in %.

Example results:
{"chemical.smiles": "COc1cc2nccc(Oc3ccc(NC(=O)Nc4ccc(F)cc4F)c(F)c3)c2cc1OC", "measurement.unit": "%", "cell viability": 81.9}
{"chemical.smiles": "NC(=O)c1ccc(-c2nc(-c3ccc4c(c3)OCCO4)c(-c3ccccn3)[nH]2)cc1", "measurement.unit": "%", "cell viability": 117}
{"chemical.smiles": "Cc1cc2c(C(C)C)c(O)c(O)c(C=O)c2c(O)c1-c1c(C)cc2c(C(C)C)c(O)c(O)c(C=O)c2c1O", "measurement.unit": "%", "cell viability": 100}
{"chemical.smiles": "C[C@H]([C@H](O)CCC(C)(C)O)[C@H]1CC[C@@]2(O)C/3=C/C(=O)[C@@H]4C[C@@H](O)[C@@H](O)C[C@]4(C)[C@H]3CC[C@]12C", "measurement.unit": "%", "cell viability": 107}

Please give cell viability, item by item, for the list that follows.
1. C=C(C)[C@@H]1CC[C@]2(C)CC[C@]3(C)[C@H](CC[C@@H]4[C@@]5(C)CC[C@H](O)C(C)(C)[C@@H]5CC[C@]43C)[C@@H]12
2. O=C(Nc1ccc(OC(F)(F)F)cc1)c1sccc1NCc1ccnc2ccccc12

119
16.6

Name the reported cell viability value associated with the compound COc1cc2ncnc(-n3nc(-c4ccccn4)nc3N)c2cc1OC
82.9

###

# Tested on: SEM cells
# experiment: cell viability relative to DMSO control; higher = less cytotoxic
# run.parameters: RPMI 5 mM glucose + 10% dialyzed FBS; 48 h; 46.1 µM
Mark True for cell viability under 9%, False if at or over.

Would you please look over these solved cases?
{"compound": "O=C(NC1CCNCC1)c1n[nH]cc1NC(=O)c1c(Cl)cccc1Cl", "experimental.target": "SEM cells", "class.label": "True"}
{"compound": "OCc1ccccc1O[C@@H]1O[C@H](CO)[C@@H](O)[C@H](O)[C@H]1O", "experimental.target": "SEM cells", "class.label": "False"}
{"compound": "Cc1cc2c(C(C)C)c(O)c(O)c(C=O)c2c(O)c1-c1c(C)cc2c(C(C)C)c(O)c(O)c(C=O)c2c1O", "experimental.target": "SEM cells", "class.label": "True"}
{"compound": "CN(C)Cc1ccc(-c2nc3cccc4c3n2CCNC4=O)cc1", "experimental.target": "SEM cells", "class.label": "False"}
{"compound": "CC1SC/2=C(C(O)=O)/C(=O)C3=CC(=C(C=C3N12)N4CCN(CC4)C\\C5=C(C)\\OC(=O)O5)F (stereo not given)", "experimental.target": "SEM cells", "class.label": "False"}

cell viability under 9%? Item: CCC[C@@H]1C[C@@H](C(=O)N[C@@H]([C@H]2O[C@H](SC)[C@H](O)[C@@H](O)[C@H]2O)[C@@H](C)O)N(C)C1.Cl
False

# TODO verify cell viability < 9% strictly for this compound: COC[C@H](NC(=O)c1cnc(C)s1)C(=O)N[C@@H](COC)C(=O)N[C@@H](Cc1ccccc1)C(=O)[C@@]1(C)CO1
True

Please indicate whether the reported cell viability of Cc1ccc(-n2nc(C(C)(C)C)cc2NC(=O)Nc2ccc(OCCN3CCOCC3)c3ccccc23)cc1 is strictly below 9%.
False

Identify whether the compound O=C(Cc1cccc(OC(F)(F)F)c1)Nc1ccc(CCCCc2nnc(NC(=O)Cc3ccccn3)s2)nn1 records cell viability below 9%.
False

###

# Test system: SEM cells
# experiment: cell viability relative to DMSO control; higher = less cytotoxic
# run.parameters: RPMI 5 mM glucose + 10% dialyzed FBS; 48 h; 15.4 µM
assay.endpoint: cell viability (%)
Give bare numbers, in %.

{"compound": "COc1ccc(Cc2nccc3cc(OC)c(OC)cc23)cc1OC", "measurement.unit": "%", "recorded.value": 111}
{"compound": "Cc1nc(Nc2ncc(C(=O)Nc3c(C)cccc3Cl)s2)cc(N2CCN(CCO)CC2)n1", "measurement.unit": "%", "recorded.value": 26.4}
{"compound": "CO[C@H]1C[C@@H]2CC[C@@H](C)[C@@](O)(O2)C(=O)C(=O)N2CCCC[C@H]2C(=O)O[C@H]([C@H](C)C[C@@H]2CC[C@@H](OP(C)(C)=O)[C@H](OC)C2)CC(=O)[C@H](C)/C=C(\\C)[C@@H](O)[C@@H](OC)C(=O)[C@H](C)C[C@H](C)/C=C/C=C/C=C/1C", "measurement.unit": "%", "recorded.value": 68.2}
{"compound": "CC(=O)N1CCN(c2ccc(OCc3nn(C)c(C)c3-c3cccc4c(CCCOc5cc(C)c(Cl)c(C)c5)c(C(=O)O)n(Cc5cccnc5)c34)cc2)CC1", "measurement.unit": "%", "recorded.value": 77.5}
{"compound": "CN(C)Cc1ccc(-c2nc3cccc4c3n2CCNC4=O)cc1", "measurement.unit": "%", "recorded.value": 110}
{"compound": "CCC1=C[C@@H]2CN(C1)Cc1c([nH]c3ccccc13)[C@@](C(=O)OC)(c1cc3c(cc1OC)N(C)[C@H]1[C@@](O)(C(=O)OC)[C@H](OC(C)=O)[C@]4(CC)C=CCN5CC[C@]31[C@@H]54)C2", "measurement.unit": "%", "recorded.value": 26.3}
{"compound": "O=C/1\\C=C(/OC(=C1)/C2=C3SC4=C(SC3=CC=C2)C=CC=C4)N5CCOCC5", "measurement.unit": "%", "recorded.value": 85.5}
{"compound": "CC1SC/2=C(C(O)=O)/C(=O)C3=CC(=C(C=C3N12)N4CCN(CC4)C\\C5=C(C)\\OC(=O)O5)F (stereo not drawn)", "measurement.unit": "%", "recorded.value": 116}

Required: cell viability, one value per compound below.
1. C[C@@H]1CC[C@@]2(OC1)O[C@H]3C[C@H]4[C@@H]5C/C=C6/C[C@H](CC[C@]6(C)[C@H]5CC[C@]4(C)[C@H]3[C@@H]2C)O[C@@H]7O[C@H](CO)[C@@H](O[C@@H]8O[C@@H](C)[C@H](O)[C@@H](O)[C@H]8O)[C@H](O)[C@H]7O[C@@H]9O[C@@H](C)[C@H](O)[C@@H](O)[C@H]9O
2. ClC1=CC=C(CCCOC/2=N/NC(=O)C(=C2NCC3=CN=CC=C3)/Br)C=C1
3. Nc1nc(-c2nn(Cc3ccccc3F)c3ncccc23)nc(N)c1N1CCOCC1
4. CNC(=O)c1cccc(-c2ccc3c(N4CCOC[C@@H]4C)nc(N4CCOC[C@@H]4C)nc3n2)c1
5. Cc1cc(O)c2c3c4c(cc(O)c13)C(C)(C)C(=O)c1c(O)cc(O)c(c1-4)C2=O

[55, 49.7, 96.2, 35, 88.6]
